Target: UniProt:P10760
Sequence (P10760 whole entry): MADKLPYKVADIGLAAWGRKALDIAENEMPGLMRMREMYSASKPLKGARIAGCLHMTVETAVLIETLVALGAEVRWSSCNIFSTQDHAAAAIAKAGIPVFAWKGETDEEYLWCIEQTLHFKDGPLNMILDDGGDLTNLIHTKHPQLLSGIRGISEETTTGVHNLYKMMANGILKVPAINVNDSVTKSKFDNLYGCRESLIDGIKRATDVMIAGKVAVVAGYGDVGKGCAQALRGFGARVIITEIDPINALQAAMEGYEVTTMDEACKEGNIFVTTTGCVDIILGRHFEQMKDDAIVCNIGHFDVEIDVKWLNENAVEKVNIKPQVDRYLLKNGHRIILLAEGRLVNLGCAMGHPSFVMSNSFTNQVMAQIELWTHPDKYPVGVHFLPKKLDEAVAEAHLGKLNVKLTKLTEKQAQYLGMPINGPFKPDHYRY
Assay: Inhibition of S-adenosyl-L-homocysteine hydrolase in intact rat hepatocytes
Assay type: cell-based, Hepatocyte
recorded_endpoint: pIC50
Bear in mind: pIC50 is minus log10 of a mol/L concentration; give just that figure.

What does the data say about its pIC50? Entry: Nc1ncnc2c1ncn2C[C@@H](O)[C@@H](O)C(=O)O [ERITADENINE]
7.52
